Provide the reported IC50 of each item.
System: HIV-1
Measurement description: HeLa CD4 LTR β-gal HIV-1 attachment assay (Experimental Example 1)
Format: cell-based
Assay context: Human immunodeficiency virus 1, HeLa, Experiment 2; pretreat 0 h

Req: Please give the measured IC50 for this compound: "COc1cc(C(C)(C)CCCC(C)C)cc(OC)c1OC"
Resp: 16000 nM

Req: Please give the measured IC50 for this compound: C=C(C)[C@@H]1CCC(C)=C[C@H]1c1c(O)cc(CCCCC)cc1O [Cannabidiol, reference compound]
Resp: 1300 nM

Req: Please give the measured IC50 for this compound: COc1cc(-c2ccc(/N=N/c3ccc4c(S(=O)(=O)O)cc(S(=O)(=O)O)c(N)c4c3O)c(OC)c2)ccc1/N=N/c1ccc2c(S(=O)(=O)O)cc(S(=O)(=O)O)c(N)c2c1O [CSB, Chicago Sky Blue, reference compound]
Resp: 0.17 µg/mL

Req: Please give the measured IC50 for this compound: "Cc1ccc2c(c1)-c1c(O)cc(C(C)(C)CCCC(C)C)cc1OC2(C)C"
Resp: < 160 nM

* * *

Provide the reported CC50 of each item.
Measurement description: Compound toxicity in the attachment assay, sister plate, XTT or MTS (Example 2)
Assay type: cell-based
Assay context: human, HeLa CD4 LTR β-gal cells, read-out: Attachment Assay TC50

Req: Please give the measured CC50 for this molecule: Cc1c(O)cc(C(C)(C)CCCC(C)C)cc1O [IMG510]
Resp: > 10 µM

Req: Please give the measured CC50 for this molecule: CC1=CCC2C(C1)c1c(O)cc(C(C)(C)CCCC(C)C)cc1OC2(C)C (centres unmarked) [IMG509]
Resp: > 10 µM

* * *

Test system: HIV-1 strain RoJo
Measurement description: PBMC time of addition assay (RT activity in supernatant at 6 days)
Assay type: cell-based
Assay context: Human immunodeficiency virus 1, PBMC, addition prior to infection; pre-treatment 0 h; read-out: IC50
Experimental readout: IC50 (µM)
# number only, unit µM dropped from output

Req: Please give the measured IC50 for this compound: C=C(C)[C@@H]1CCC(C)=C[C@H]1c1c(O)cc(CCCCC)cc1O [Cannabidiol, reference compound]
Resp: 0.58

* * *

Provide the reported CC50 at 6 days of each item.
Measurement description: PBMC cell viability in time of addition assay (MTS / Trypan Blue)
Assay type: cell-based, Human
Assay context: human; treatment −4 h pre; read-out: TC50

Req: Please give the measured CC50 at 6 days for this compound: "Cc1ccc2c(c1)-c1c(O)cc(C(C)(C)CCCC(C)C)cc1OC2(C)C"
Resp: > 100 µM

Req: Please give the measured CC50 at 6 days for this compound: CC(C)=CCCC1(C)CCc2c(O)cc(C(C)(C)CCCC(C)C)cc2O1 (centres unmarked)
Resp: > 100 µM

Req: Please give the measured CC50 at 6 days for this compound: CC1=CCC2C(C1)c1c(O)cc(C(C)(C)CCCC(C)C)cc1OC2(C)C (centres unmarked)
Resp: > 100 µM

Req: Please give the measured CC50 at 6 days for this compound: "Cc1c(O)cc(C(C)(C)CCCC(C)C)cc1O"
Resp: > 100 µM

Req: Please give the measured CC50 at 6 days for this compound: C=C(C)[C@@H]1CCC(C)=C[C@H]1c1c(O)cc(CCCCC)cc1O [Cannabidiol, reference compound]
Resp: > 100 µM

* * *

Provide the reported CC50 of each item.
Test system: peripheral blood mononuclear cells (PBMCs)
Measurement description: PBMC cell viability in time of addition assay (MTS / Trypan Blue)
Assay type: cell-based, Human
Assay context: treatment at infection; read-out: TC50 (the source's name)

Req: Please give the measured CC50 for this compound: CC(C)=CCCC1(C)CCc2c(O)cc(C(C)(C)CCCC(C)C)cc2O1 (stereo not drawn)
Resp: > 100 µM

Req: Please give the measured CC50 for this compound: "Cc1c(O)cc(C(C)(C)CCCC(C)C)cc1O"
Resp: > 100 µM

Req: Please give the measured CC50 for this compound: Cc1cn([C@H]2C[C@H](N=[N+]=[N-])[C@@H](CO)O2)c(=O)[nH]c1=O [AZT, reference compound]
Resp: > 4 µM

Req: Please give the measured CC50 for this compound: "Cc1ccc2c(c1)-c1c(O)cc(C(C)(C)CCCC(C)C)cc1OC2(C)C"
Resp: > 100 µM

Req: Please give the measured CC50 for this compound: C=C(C)[C@@H]1CCC(C)=C[C@H]1c1c(O)cc(CCCCC)cc1O [Cannabidiol, reference compound]
Resp: > 100 µM

Req: Please give the measured CC50 for this compound: CC1=CCC2C(C1)c1c(O)cc(C(C)(C)CCCC(C)C)cc1OC2(C)C (stereo not drawn)
Resp: > 100 µM

* * *

Provide the reported CC50 at 48 h of each item.
Measurement description: Compound toxicity in the attachment assay, sister plates, MTS dye reduction
Format: cell-based
Assay context: human, HeLa CD4 LTR β-gal cells, Experiment 2; pretreat 24 h; read-out: TC50
# number only, unit µM dropped from output

Req: Please give the measured CC50 at 48 h for this compound: "Cc1c(O)cc(C(C)(C)CCCC(C)C)cc1O"
Resp: 39.4

Req: Please give the measured CC50 at 48 h for this compound: "Cc1ccc2c(c1)-c1c(O)cc(C(C)(C)CCCC(C)C)cc1OC2(C)C"
Resp: 11.1

Req: Please give the measured CC50 at 48 h for this compound: C=C(C)[C@@H]1CCC(C)=C[C@H]1c1c(O)cc(CCCCC)cc1O [Cannabidiol, reference compound]
Resp: 33

Req: Please give the measured CC50 at 48 h for this compound: CC(C)=CCCC1(C)CCc2c(O)cc(C(C)(C)CCCC(C)C)cc2O1 (stereo not drawn)
Resp: 12.2

Req: Please give the measured CC50 at 48 h for this compound: CC1=CCC2C(C1)c1c(O)cc(C(C)(C)CCCC(C)C)cc1OC2(C)C (stereo not drawn)
Resp: 14.9

* * *

Test system: HIV-1 (96USHIPS7 strain)
Measurement description: HIV attachment assay in PBMCs (cell-associated p24)
Assay type: cell-based
Assay context: 15 μM; time 0 h
Please note: yes applies when % Control is 80% or greater, and no applies otherwise.

Req: // inclusive: % Control at least 80%? input: CC1=CCC2C(C1)c1c(O)cc(C(C)(C)CCCC(C)C)cc1OC2(C)C (stereo not drawn)
Resp: yes

Req: // inclusive: % Control at least 80%? input: "Cc1c(O)cc(C(C)(C)CCCC(C)C)cc1O"
Resp: yes

Req: // inclusive: % Control at least 80%? input: C=C(C)[C@@H]1CCC(C)=C[C@H]1c1c(O)cc(CCCCC)cc1O [Cannabidiol, reference compound]
Resp: yes

Req: // inclusive: % Control at least 80%? input: "Cc1ccc2c(c1)-c1c(O)cc(C(C)(C)CCCC(C)C)cc1OC2(C)C"
Resp: no

Req: // inclusive: % Control at least 80%? input: "COc1cc(C(C)(C)CCCC(C)C)cc(OC)c1OC"
Resp: yes

* * *

System: HIV-1 strain RoJo
Measurement description: PBMC time of addition assay (RT activity in supernatant at 6 days)
Type: cell-based
Assay context: treatment 6 h post; read-out: IC50
Experimental readout: IC50 (nM)
# number only, unit nM dropped from output

Req: Please give the measured IC50 for this compound: Cc1cn([C@H]2C[C@H](N=[N+]=[N-])[C@@H](CO)O2)c(=O)[nH]c1=O [AZT, reference compound]
Resp: 4.6

* * *

Test system: HIV-1 strain RoJo
Measurement description: PBMC time of addition assay (RT activity in supernatant at 6 days)
Assay type: cell-based
Assay context: addition prior to infection; pre-treatment 0 h; read-out: IC50
Experimental readout: IC50
Form field: result (number plus unit)

Req: Please give the measured IC50 for this molecule: Cc1cn([C@H]2C[C@H](N=[N+]=[N-])[C@@H](CO)O2)c(=O)[nH]c1=O [AZT, reference compound]
Resp: 1 nM

* * *

Tested on: HIV-1 strain RoJo
Measurement description: PBMC time of addition assay (RT activity in supernatant at 6 days)
Assay type: cell-based
Assay context: addition prior to infection; pre-treatment 4 h; read-out: IC50
Excerpt: Human peripheral blood mononuclear cells (PBMCs) from a minimum of 2 donors, that have been blasted with PHA and IL-2, were counted, viability determined by Trypan Blue dye exclusion and mixed in equal ratios. Pooled donors were used to minimize the variability observed between individual donors which results from quantitative and qualitative differences in HIV infection and overall response to the PHA and IL-2 of primary lymphocyte populations. […]
Experimental readout: IC50 (nM)
# number only, unit nM dropped from output

Req: Please give the measured IC50 for this compound: Cc1cn([C@H]2C[C@H](N=[N+]=[N-])[C@@H](CO)O2)c(=O)[nH]c1=O [AZT, reference compound]
Resp: 1

* * *

Provide the reported CC50 at 48 h of each item.
Measurement description: Compound toxicity in the attachment assay, sister plates, MTS dye reduction
Format: cell-based
Assay context: human, HeLa CD4 LTR β-gal cells, Experiment 2; pretreat 4 h; read-out: TC50
Procedure: At assay termination the assay plates were stained with the soluble tetrazolium-based dye MTS (CellTiter96® Reagent Promega) to determine cell viability and quantify compound toxicity. MTS is metabolized by the mitochondria enzymes of metabolically active cells to a soluble formazan product, allowing the rapid quantitative analysis cell viability and compound cytotoxicity. […] At termination of the assay 20 μL of MTS reagent was added per well and incubated for 4 h at 37° C. […]

Req: Please give the measured CC50 at 48 h for this compound: "Cc1ccc2c(c1)-c1c(O)cc(C(C)(C)CCCC(C)C)cc1OC2(C)C"
Resp: > 50 µM

Req: Please give the measured CC50 at 48 h for this compound: "COc1cc(C(C)(C)CCCC(C)C)cc(OC)c1OC"
Resp: > 50 µM

Req: Please give the measured CC50 at 48 h for this compound: "Cc1c(O)cc(C(C)(C)CCCC(C)C)cc1O"
Resp: > 50 µM
